- experiment_summary: growth inhibition of non-replicating M. tuberculosis (AID 488890);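 also: plate controls were DMSO cells for no effect and high antibiotic wells for full effect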
- details: Mycobacterium tuberculosis non-replicating, at 25 µM, stronger effect = higher value
The campaign covered roughly 320,000 compounds. About 1,300 (0.41%) were called active. About 3% were inconclusive and are not listed. These entries were drawn from the full list. Entries with a potency or affinity are not part of this list.
outcome_measure: inhibition (%)
Provide only the numeric value, understood in %.

// worked examples, inhibition included
compound	measured_result
CCOC(=O)N1CCN(S(=O)(=O)c2ccc(C(=O)N(CCCN(C)C)c3nc4cc(OC)ccc4s3)cc2)CC1	8.58
Cc1cccc2nc(CSc3ccccc3C(=O)O)cn12	24.4
COc1ccc(S(=O)(=O)N2CCCCCC2)cc1NC(=O)CN1C(=O)CNC1=O	13.3

compound CC(=O)Nc1ccc(NC(=O)COc2ccc3c(c2)CCC3)cc1 , inhibition observed: 79.7

compound CC(=O)Nc1ccc(C(=O)CSc2nnc(Cc3ccccc3)o2)cc1 , inhibition observed: 38.2

compound CCC(C)C(NC(=O)c1ccccc1NC(=O)c1ccc(OC)cc1)C(=O)NCCCn1ccnc1 (stereo not given) , inhibition observed: 7.04

compound COc1ccc(OCC(=O)NNC(=O)c2cccnc2)cc1 , inhibition observed: 3.8

compound Cc1cccnc1NC(=O)COc1ccc2c(c1)CCC2 , inhibition observed: 70.6

compound CN(C)/C=N/c1ncc(-c2ncc(C(F)(F)F)cc2Cl)cn1 , inhibition observed: -8.2

compound CCOc1ccc(NC(=O)COc2ccc3c(c2)CCC3)cc1OC , inhibition observed: 66.5

compound O=C(COC(=O)CCS(=O)(=O)c1ccc(Cl)cc1)NCCc1ccc(Cl)cc1Cl , inhibition observed: 21.4

---

Overview of reported inhibition across a group of compounds:
- experiment_summary: growth inhibition of non-replicating M. tuberculosis (AID 488890);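 also: plate controls were DMSO cells for no effect and high antibiotic wells for full effect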
- details: Mycobacterium tuberculosis non-replicating, at 25 µM, stronger effect = higher value
About 1,300 (0.41%) of roughly 320,000 compounds were called active. Roughly 3% stayed inconclusive and do not appear here. The list is a sample of the results. Entries with a potency or affinity are not part of this list.
Provide only the numeric value, understood in %.

// worked examples, inhibition included
compound	outcome_measure	measured_result
CCCCOc1ccc(-c2nnn(CC(=O)Nc3ncc(CC(=O)OCC)s3)n2)cc1	inhibition	78.8
CC(=NNC(=O)CSc1nc2ccccc2o1)c1ccco1	inhibition	13.5
CCOCCCNC(=O)c1cc2c(s1)-c1ccccc1SC2	inhibition	9.76
CCCCCCCCC(=O)N1CCN(c2cc3c(cc2F)c(=O)c(C(=O)O)cn3CC)CC1	inhibition	62.8
CC1CCCCN1CCn1c(=S)[nH]c2cc3c(cc2c1=O)OCO3 (centres undefined)	inhibition	9.55

compound COc1ccc(CCNC(=O)C(=O)c2c(C)[nH]c3ccccc23)cc1 , inhibition observed: 12

compound CC1=C(C(=O)OCc2ccccc2)C(c2ccc([N+](=O)[O-])cc2)NC(=O)N1 (centres undefined) , inhibition observed: 8.66

compound COCCCn1c(C)nnc1SCC(=O)NNC(=O)COc1ccc(Cl)cc1 , inhibition observed: 0.75

---

- experiment_summary: growth inhibition of non-replicating M. tuberculosis (AID 488890);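 also: plate controls were DMSO cells for no effect and high antibiotic wells for full effect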
- details: Mycobacterium tuberculosis non-replicating, at 25 µM, stronger effect = higher value
Among all 320,000 compounds or so, about 1,300 (0.41%) were called active. Roughly 3% stayed inconclusive and do not appear here. The list is a sample of the results. Entries with a potency or affinity are not part of this list.
outcome_measure: inhibition
Param answer (str): number followed by unit.

compound COc1ccc(Cl)cc1C(=O)Nc1nc2ccccc2[nH]1 , inhibition observed: 62.4%

compound OC/C(Br)=C(\Br)CO , inhibition observed: -3.52%

compound COc1ccc(C(=O)Nc2nc3ccccc3[nH]2)cc1OC , inhibition observed: 22.2%

compound CCOc1ccccc1OCC(=O)Nc1nc2ccccc2[nH]1 , inhibition observed: 34.2%

compound Cc1[nH]c2ccccc2c1CC#N , inhibition observed: -7.72%

compound Brc1ccc(-c2nnc(-c3cccnc3)o2)cc1 , inhibition observed: 68.4%

compound CCSc1ncc(C)cc1[N+](=O)[O-] , inhibition observed: -10.3%
